Measured MIC accompanies every entry in the list below.
System: K. pneumoniae UFR77
Assay: MIC of compound alone, broth microdilution
Type: cell-based
Conditions: Klebsiella pneumoniae; strain UFR77: K. pneumoniae; CMY-2; read-out: MIC compounds of the invention alone
# unit: µg/mL | format: bare number

[
  {
    "compound": "O=C1N2CC(n3ccnn3)=C[C@H](C2)N1OS(=O)(=O)O",
    "resultUnits": "µg/mL",
    "MIC": 1
  },
  {
    "compound": "O=C1N2CC(n3cncn3)=CC(C2)N1OS(=O)(=O)[O-].[Na+] (stereo not shown)",
    "resultUnits": "µg/mL",
    "MIC": 4
  },
  {
    "compound": "O=C1N2CC(n3ccsc3=O)=CC(C2)N1OS(=O)(=O)[O-].[Na+] (stereo not shown)",
    "resultUnits": "µg/mL",
    "MIC": 8
  }
]

Here is the next item to consider.
Record O=C1N2CC(n3nccn3)=CC(C2)N1OS(=O)(=O)O (stereo not shown) , field MIC: 4

====

Target: AmpC (P99) (Enterobacter cloacae, UniProt P05364)
Sequence (P05364 21-381): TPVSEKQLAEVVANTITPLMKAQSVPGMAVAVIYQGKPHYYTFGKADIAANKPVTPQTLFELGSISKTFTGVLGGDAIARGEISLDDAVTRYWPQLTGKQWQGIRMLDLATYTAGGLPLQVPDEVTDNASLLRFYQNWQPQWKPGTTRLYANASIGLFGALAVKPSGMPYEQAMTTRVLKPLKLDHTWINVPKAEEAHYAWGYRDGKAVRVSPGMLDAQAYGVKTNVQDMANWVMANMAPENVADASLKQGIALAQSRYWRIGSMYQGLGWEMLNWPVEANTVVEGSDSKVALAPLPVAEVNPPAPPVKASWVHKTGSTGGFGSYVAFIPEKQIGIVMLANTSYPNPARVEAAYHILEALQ
Experiment: biochemical
measurementKind: pIC50
A value of pIC50 is the negative decimal logarithm of a concentration given in moles per litre.

[
  {
    "compound": "CC(=O)c1cnn(C2=CC3CN(C2)C(=O)N3OS(=O)(=O)[O-])c1.[Na+] (stereo not drawn) [Example 40]",
    "pIC50": 8.12
  }
]

The reported pIC50 of the compound O=C(Nc1ccn(C2=CC3CN(C2)C(=O)N3OS(=O)(=O)O)n1)c1cncs1 (stereo not drawn) [Example 77] was 7.96

Recorded pIC50 (compound O=C1N2CC(n3ccc(F)n3)=CC(C2)N1OS(=O)(=O)[O-].[Na+] (stereo not drawn) [Example 18] ): 7.62

====

Target: AmpC (PAE) (Pseudomonas aeruginosa, UniProt P24735)
Test: biochemical
measurementKind: IC50 (nM)
Lab book: enter the figure in nM, no units written.

Before answering, review these 2 worked examples.
[
  {
    "compound": "O=C1N2CC(n3cc(C(F)(F)F)cn3)=CC(C2)N1OS(=O)(=O)[O-].[Na+] (stereo not drawn)",
    "IC50 [nM]": 78
  },
  {
    "compound": "O=C(Nc1ccccn1)c1ccn(C2=CC3CN(C2)C(=O)N3OS(=O)(=O)[O-])n1.[Na+] (stereo not drawn)",
    "IC50 [nM]": 150
  }
]

Now consider the entry below.
Form: compound = CC(=NOCCN)c1ccn(C2=CC3CN(C2)C(=O)N3OS(=O)(=O)O)n1 (mixture of isomers) ; IC50 = 190

====

MIC combination of CAZ and compounds of the invention at 4 μg/mL: recorded values
Tested on: P. aeruginosa CIP107051
Test: MIC of ceftazidime (CAZ) at fixed concentration of compound (synergy), broth microdilution
Format: cell-based
Conditions: MIC of ceftazidime with compound fixed at 4 μg/mL; strain CIP107051 (P. aeruginosa)
# respond with the number and nothing more

Input O=C1N2CC(n3cccn3)=CC(C2)N1OC(F)(F)C(=O)[O-].[Li+] (centres unmarked) . Output MIC combination of CAZ and compounds of the invention at 4 μg/mL: 4

Reported MIC combination of CAZ and compounds of the invention at 4 μg/mL ( O=C1N2CC(n3ccnn3)=CC(C2)N1OS(=O)(=O)[O-].[Na+] (centres unmarked) ) = 4

Please fill in: MIC combination of CAZ and compounds of the invention at 4 μg/mL reported for O=C1N2CC(n3ccsc3=O)=CC(C2)N1OS(=O)(=O)[O-].[Na+] (centres unmarked) = 8

response.value for O=C1N2CC(n3nccn3)=CC(C2)N1OS(=O)(=O)O (centres unmarked) (field: MIC combination of CAZ and compounds of the invention at 4 μg/mL) = 4

Lab note: measured MIC combination of CAZ and compounds of the invention at 4 μg/mL of `O=C1N2CC(n3ccnn3)=C[C@H](C2)N1OS(=O)(=O)O` was 4

Cited source for all entries: patent US10722520B2
